Experiment: Inhibition of AchE in fly head nerve cells using acetylthiocholine iodide as substrate preincubated for 20 mins followed by substrate addition and measured every 30s for 1 hr by DTNB reagent based Ellman's spectrophotometric method
Details: Diptera, Nerve cell
measure: log10 of IC50 (log10 of the value in µM)
All values: base-10 log of IC50 in µM.

Example entries begin here.
>>> value_measured("C=CCCN1C[C@@H]2C[C@@H](Cn3c2cccc3=O)C1=O")
1.11
>>> value_measured("C/C=C1\\[C@H]2C=C(C)C[C@]1(N)c1ccc(=O)[nH]c1C2")
-0.92
>>> value_measured("CC(=O)N1CCCC[C@@H]1[C@]12C[C@H](C[C@@H]3CCCN[C@H]31)[C@H]1CCCCN1C2")
0.93
>>> value_measured("C=CCCN1C[C@@H]2C[C@@H](CN3C(=O)CCC[C@]23OC)C1=O")
1.20
>>> value_measured("C1=C2CCCN3CN4CCCC[C@@H]4[C@]4(C[C@@H]1[C@H]1CCCCN1C4)[C@@H]23")
0.72
>>> value_measured("CN1CCCC[C@H]1[C@@]12C[C@H](C[C@H]3CCCN[C@@H]31)[C@H]1CCCCN1C2")
1.23
>>> value_measured("C=CCCN1C[C@@H]2C[C@@H](CN3C(=O)CC[C@H](O)[C@]23O)C1=O")
1.47
>>> value_measured("C1CC[C@H]([C@]23C[C@@H](C[C@@H]4CCCN[C@H]42)[C@H]2CCCCN2C3)NC1")
0.75

Now examine the next entry.
q: Which measured log10 of IC50 value corresponds to "O=C1C(CCCO)=C[C@H]2C[C@]1([C@@H]1CCCCN1)CN1CCCC[C@@H]21" ?
a: 0.19
